Reference for the values: paper PMC5034805

Assay: Rifampin drug–drug interaction study: romidepsin plasma pharmacokinetics
Assay type: in vivo, human (patients with advanced cancer)
Details: human, plasma, intravenous, 14 mg/m2
endpoint-name: Tmax (h)
Answer format: numeric, h implied, no suffix.

Identify the reported Tmax for the following entry. C/C=C1\NC(=O)[C@H]2CSSCC/C=C/[C@H](CC(=O)N[C@H](C(C)C)C(=O)N2)OC(=O)[C@H](C(C)C)NC1=O
2.98

---

Experiment: Ketoconazole drug–drug interaction study: romidepsin plasma pharmacokinetics
Format: in vivo, human (patients with advanced cancer)
Settings: human, plasma, iv, 8 mg/m^2
endpoint-name: AUC(0-inf) (ng·h/mL)
Answer format: numeric, ng·h/mL implied, no suffix.

Identify the reported AUC(0-inf) for the following entry. C/C=C1\NC(=O)[C@H]2CSSCC/C=C/[C@H](CC(=O)N[C@H](C(C)C)C(=O)N2)OC(=O)[C@H](C(C)C)NC1=O
915

---

Test: Rifampin drug–drug interaction study: romidepsin plasma pharmacokinetics
Type: in vivo, human (patients with advanced cancer)
Details: human, plasma, intravenous, 14 mg/m2
endpoint-name: clearance (mL/min)
Answer format: numeric, mL/min implied, no suffix.

Identify the reported clearance for the following entry. C/C=C1\NC(=O)[C@H]2CSSCC/C=C/[C@H](CC(=O)N[C@H](C(C)C)C(=O)N2)OC(=O)[C@H](C(C)C)NC1=O [Romidepsin]
193

---

Assay: Ketoconazole drug–drug interaction study: romidepsin plasma pharmacokinetics
Format: in vivo, human (patients with advanced cancer)
Conditions: human, plasma, iv, 8 mg/m^2
endpoint-name: Cmax
Please give the number followed by its unit.

Identify the reported Cmax for the following entry. C/C=C1\NC(=O)[C@H]2CSSCC/C=C/[C@H](CC(=O)N[C@H](C(C)C)C(=O)N2)OC(=O)[C@H](C(C)C)NC1=O [Romidepsin]
229 ng/mL

---

Assay: Ketoconazole drug–drug interaction study: romidepsin plasma pharmacokinetics
Format: in vivo, human (patients with advanced cancer)
Settings: human, plasma, intravenous, 8 mg/m2
endpoint-name: clearance
Please give the number followed by its unit.

Identify the reported clearance for the following entry. C/C=C1\NC(=O)[C@H]2CSSCC/C=C/[C@H](CC(=O)N[C@H](C(C)C)C(=O)N2)OC(=O)[C@H](C(C)C)NC1=O
282 mL/min

---

Test: Ketoconazole drug–drug interaction study: romidepsin plasma pharmacokinetics
Type: in vivo, human (patients with advanced cancer)
Conditions: human, plasma, intravenous, 8 mg/m2
endpoint-name: half-life
Please give the number followed by its unit.

Identify the reported half-life for the following entry. C/C=C1\NC(=O)[C@H]2CSSCC/C=C/[C@H](CC(=O)N[C@H](C(C)C)C(=O)N2)OC(=O)[C@H](C(C)C)NC1=O
9.7 h

---

Assay: Rifampin drug–drug interaction study: romidepsin plasma pharmacokinetics
Format: in vivo, human (patients with advanced cancer)
Settings: human, plasma, intravenous, 14 mg/m2
endpoint-name: half-life (h)
Answer format: numeric, h implied, no suffix.

Identify the reported half-life for the following entry. C/C=C1\NC(=O)[C@H]2CSSCC/C=C/[C@H](CC(=O)N[C@H](C(C)C)C(=O)N2)OC(=O)[C@H](C(C)C)NC1=O
9.7

---

Assay: Ketoconazole drug–drug interaction study: romidepsin plasma pharmacokinetics
Assay type: in vivo, human (patients with advanced cancer)
Settings: human, plasma, intravenous, 8 mg/m2
endpoint-name: Vd (L)
Answer format: numeric, L implied, no suffix.

Identify the reported Vd for the following entry. C/C=C1\NC(=O)[C@H]2CSSCC/C=C/[C@H](CC(=O)N[C@H](C(C)C)C(=O)N2)OC(=O)[C@H](C(C)C)NC1=O
236

---

Assay: Rifampin drug–drug interaction study: romidepsin plasma pharmacokinetics
Format: in vivo, human (patients with advanced cancer)
Conditions: human, plasma, iv, 14 mg/m^2
endpoint-name: AUC(0-inf) (ng·h/mL)
Answer format: numeric, ng·h/mL implied, no suffix.

Identify the reported AUC(0-inf) for the following entry. C/C=C1\NC(=O)[C@H]2CSSCC/C=C/[C@H](CC(=O)N[C@H](C(C)C)C(=O)N2)OC(=O)[C@H](C(C)C)NC1=O
2230

---

Assay: Ketoconazole drug–drug interaction study: romidepsin plasma pharmacokinetics
Assay type: in vivo, human (patients with advanced cancer)
Conditions: human, plasma, intravenous, 8 mg/m2
endpoint-name: Tmax (h)
Answer format: numeric, h implied, no suffix.

Identify the reported Tmax for the following entry. C/C=C1\NC(=O)[C@H]2CSSCC/C=C/[C@H](CC(=O)N[C@H](C(C)C)C(=O)N2)OC(=O)[C@H](C(C)C)NC1=O
3.5
